The reported measurements were obtained from patent US20260098080A1.

# study system: T1, MASP-1 (UniProt P48740 298-699, limits assumed)
# T1 sequence (looked up): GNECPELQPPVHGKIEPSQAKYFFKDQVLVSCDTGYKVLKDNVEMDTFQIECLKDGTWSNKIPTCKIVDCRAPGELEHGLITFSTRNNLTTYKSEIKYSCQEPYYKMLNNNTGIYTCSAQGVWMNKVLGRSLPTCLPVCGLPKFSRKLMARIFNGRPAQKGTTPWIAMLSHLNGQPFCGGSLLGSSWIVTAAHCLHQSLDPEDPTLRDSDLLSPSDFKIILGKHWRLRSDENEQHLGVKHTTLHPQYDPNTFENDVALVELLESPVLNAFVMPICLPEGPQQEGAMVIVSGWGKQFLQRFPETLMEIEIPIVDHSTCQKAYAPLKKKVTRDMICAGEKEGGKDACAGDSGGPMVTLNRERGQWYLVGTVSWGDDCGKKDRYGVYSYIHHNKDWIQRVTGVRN
# procedure summary: cell-based or functional assay
Where no end group is shown, it is not given here.
parameter measured: IC50, enzyme activity on synthetic substrate
Report the figure along with its unit, number first.

Worked examples, 3 binders total:
EVO21 (designed binder, not fully specified; ends and bridges not checked, Modified TFPI-D2 Kunitz domain; made as m1) KPDFCFLENDPGPCRALKRRYFYNNQTKQCERFGYGGCLGNMNNFVTLEECKNICEDG | 13 µM
EVO214 (designed binder, not fully specified; ends and bridges not checked, Modified TFPI-D2 Kunitz domain; made as m1) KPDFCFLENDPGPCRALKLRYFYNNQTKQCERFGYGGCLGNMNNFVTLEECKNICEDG | 9.6 µM
EVO24 (designed binder, not fully specified; cysteine pairing not given here, Modified TFPI-D2 Kunitz domain; made as m1) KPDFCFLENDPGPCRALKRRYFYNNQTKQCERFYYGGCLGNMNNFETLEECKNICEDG | 9.5 µM

Attention now turns to another entry.
Prompt: Please list IC50, enzyme activity on synthetic substrate recorded for the binder EVO23 (designed binder, not fully specified; cysteine pairing not given here, Modified TFPI-D2 Kunitz domain; made as m1) KPDFCFLENDPGPCRALKRRYFYNNQTKQCERFYYGGCFGNMNNFVTLEECKNICEDG
Completion: 6.5 µM
